- testTarget: Tyrosine-protein phosphatase non-receptor type 1 (Homo sapiens, UniProt P18031)
- Sequence (P18031 whole entry): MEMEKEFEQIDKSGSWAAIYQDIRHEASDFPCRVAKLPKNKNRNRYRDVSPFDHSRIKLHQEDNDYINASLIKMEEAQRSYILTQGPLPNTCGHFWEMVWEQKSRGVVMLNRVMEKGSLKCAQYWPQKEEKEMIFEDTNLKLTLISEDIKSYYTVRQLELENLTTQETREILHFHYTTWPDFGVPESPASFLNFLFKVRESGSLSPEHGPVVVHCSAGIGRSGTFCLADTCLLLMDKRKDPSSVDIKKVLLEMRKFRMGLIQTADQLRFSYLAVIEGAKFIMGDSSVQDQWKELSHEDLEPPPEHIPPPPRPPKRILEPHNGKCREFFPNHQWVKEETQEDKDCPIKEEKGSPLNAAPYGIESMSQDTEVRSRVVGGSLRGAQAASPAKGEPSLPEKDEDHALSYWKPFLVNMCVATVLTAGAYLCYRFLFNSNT
This section presents IC50 values reported for Tyrosine-protein phosphatase non-receptor type 1 (Homo sapiens, UniProt P18031) in the literature.
# value in nM; strip the unit string

// returns reported IC50 for input O=C(O)CCCCCN1C(=O)/C(=C/c2cn(-c3ccccc3)nc2-c2ccc(Cl)cc2Cl)SC1=S 1350

What value of IC50 has been reported for the following molecule? O=C1CN(c2c(O)cc3ccc(NCCC4CC4)cc3c2F)S(=O)(=O)N1 1

Request the reported IC50 associated with COc1cc(/C=C2\SC(=O)N(Cc3ccc(C(=O)O)cc3)C2=O)ccc1O 2600

Name the recorded IC50 for O=C1CC(c2ccc(CC(NS(=O)(=O)c3ccc(-c4ccccc4)cc3)c3nc4cc(F)ccc4[nH]3)cc2)S(=O)(=O)N1 (stereo not given) . 120

----------
- testTarget: Tyrosine-protein phosphatase non-receptor type 1 (Homo sapiens)
- Sequence (P18031 whole entry): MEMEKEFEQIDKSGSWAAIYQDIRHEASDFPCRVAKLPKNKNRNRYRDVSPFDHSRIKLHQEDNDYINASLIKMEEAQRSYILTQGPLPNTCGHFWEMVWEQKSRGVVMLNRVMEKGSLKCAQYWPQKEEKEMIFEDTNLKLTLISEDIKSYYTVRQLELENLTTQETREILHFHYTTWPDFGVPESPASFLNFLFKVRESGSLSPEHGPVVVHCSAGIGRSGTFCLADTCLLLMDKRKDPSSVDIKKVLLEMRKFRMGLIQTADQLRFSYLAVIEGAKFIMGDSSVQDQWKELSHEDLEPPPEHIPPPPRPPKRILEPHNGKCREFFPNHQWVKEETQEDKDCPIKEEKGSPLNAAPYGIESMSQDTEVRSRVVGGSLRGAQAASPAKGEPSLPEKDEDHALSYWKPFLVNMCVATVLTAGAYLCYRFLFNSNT
# pIC50 against Tyrosine-protein phosphatase non-receptor type 1 (Homo sapiens), merged from multiple literature sources
When answering, recall that pIC50 equals minus log10 of the concentration in mol/L, and write that number alone.

Would you please look over these solved cases?
> print(dat)
                                        smi  assayvalue
1  O=C(O)c1cc(/C=C/c2ccc(/C=C/c3ccc(O)c(C(=O)O)c3)cc2)ccc1O        5.30
2  O=C(O)COc1ccc(S(=O)(=O)N(Cc2ccc(-c3csnn3)cc2)Cc2ccc(F)c(C(F)(F)P(=O)(O)O)c2)cc1        6.85
3  CC(C)=CCc1cc(C[C@@H](O)C(=O)c2cc(CC=C(C)C)c(O)cc2O)ccc1O        4.04

Would you kindly look at the next entry?
Looking for the measured pIC50 of C/C=C/C(=O)O[C@H]1CC[C@]2(C)[C@H]3CC=C4[C@@H]5CC(C)(C)CC[C@]5(C(=O)O)CC[C@@]4(C)[C@]3(C)CC[C@H]2C1(C)C , can you help? 4.75

----------
- testTarget: UniProt P18031
- Sequence (P18031 whole entry): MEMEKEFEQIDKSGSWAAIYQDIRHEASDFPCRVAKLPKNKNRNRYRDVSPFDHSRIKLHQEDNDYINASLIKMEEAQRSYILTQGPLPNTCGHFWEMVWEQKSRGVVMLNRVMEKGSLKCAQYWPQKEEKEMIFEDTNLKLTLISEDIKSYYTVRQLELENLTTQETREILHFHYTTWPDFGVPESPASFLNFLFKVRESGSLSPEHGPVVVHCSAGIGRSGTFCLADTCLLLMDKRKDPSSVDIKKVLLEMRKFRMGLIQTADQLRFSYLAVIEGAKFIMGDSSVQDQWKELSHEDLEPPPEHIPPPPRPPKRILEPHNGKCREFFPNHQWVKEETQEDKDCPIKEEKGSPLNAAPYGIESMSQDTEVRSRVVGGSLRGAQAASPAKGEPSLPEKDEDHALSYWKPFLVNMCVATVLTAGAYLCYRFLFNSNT
Header: pIC50 / UniProt P18031 / multiple publications
Hey, just a heads up that pIC50 is the negative log base 10 of the concentration in molar.

// lookup pIC50 for COc1ccc(C(=O)/C=C/c2ccc(O)cc2)c(O)c1CC=C(C)C 5.14

What does the data say about its pIC50? Entry: CCOc1ccc(-c2csc(C(C#N)CNc3ccc4oc(=O)ccc4c3)n2)cc1 (stereo not drawn) 4.55

Requested read-out: pIC50. Entry: NC(=O)[C@H](Cc1ccc(C2CC(=O)NS2(=O)=O)cc1)NC(=O)[C@H](Cc1ccccc1)NC(=O)Cc1ccc(C(F)(F)F)cc1 (stereo partly drawn) 6.77

----------
// molecules with reported pIC50 on Tyrosine-protein phosphatase non-receptor type 1 (Homo sapiens), multi-publication
- testTarget: Tyrosine-protein phosphatase non-receptor type 1 (Homo sapiens)
- Sequence (P18031 whole entry): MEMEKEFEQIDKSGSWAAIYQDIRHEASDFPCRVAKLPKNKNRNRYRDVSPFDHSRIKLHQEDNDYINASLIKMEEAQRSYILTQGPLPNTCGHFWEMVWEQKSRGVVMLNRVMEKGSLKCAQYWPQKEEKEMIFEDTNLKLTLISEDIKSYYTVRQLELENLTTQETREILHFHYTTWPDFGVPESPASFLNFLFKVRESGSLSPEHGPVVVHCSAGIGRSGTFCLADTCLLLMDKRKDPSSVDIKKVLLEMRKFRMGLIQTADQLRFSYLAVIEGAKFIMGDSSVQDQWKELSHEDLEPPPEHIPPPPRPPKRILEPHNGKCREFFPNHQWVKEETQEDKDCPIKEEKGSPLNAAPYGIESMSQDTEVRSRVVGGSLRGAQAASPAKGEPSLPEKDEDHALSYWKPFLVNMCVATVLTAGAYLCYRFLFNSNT
Notebook: values listed as pIC50 are -log10 of the concentration (mol/L).

> print(dat)
                                        smi  assayvalue
1   N#Cc1ccc2cc(C(F)(F)P(=O)(O)O)c(Br)cc2c1        6.51
2  CC1(C)C=Cc2c(ccc(-c3cc4ccc(O)cc4o3)c2O)O1        4.19
3  CCOC(=O)[C@]1(C)CCC[C@@]2(C)[C@@H]3CC[C@@]4(C)C[C@]3(CC[C@@H]21)C[C@H]4OC(=O)c1ccc(O)cc1        6.44

Could you share what pIC50 was measured for O=C1NC(=O)/C(=C/c2ccc(OCc3ccc(F)cc3)cc2OCc2ccc(C(F)(F)F)cc2)S1 , tested on Tyrosine-protein phosphatase non-receptor type 1 (Homo sapiens)? 5.40

Recall the recorded pIC50 for O=C(O)[C@H](Cc1ccccc1)Oc1ccc(-c2ccc(-c3c(Cc4ccc(F)cc4)oc4ccccc34)cc2)cc1 with Tyrosine-protein phosphatase non-receptor type 1 (Homo sapiens) and state it. 6.22

Tell me reported pIC50 for COC(=O)CC[C@@H](C)[C@H]1CC[C@H]2[C@@H]3CC=C4C(C)(C)c5nc(N)sc5C[C@]4(C)[C@H]3CC[C@]12C , tested with Tyrosine-protein phosphatase non-receptor type 1 (Homo sapiens). 5.04

// lookup pIC50 | system=Tyrosine-protein phosphatase non-receptor type 1 (Homo sapiens) | key= O=C1NC(=O)/C(=C/c2ccc(OCc3ccc(C(F)(F)F)cc3)c(Br)c2)S1 5.30

----------
// merged dataset of IC50 values, system = Tyrosine-protein phosphatase non-receptor type 1 (Homo sapiens, UniProt P18031), multiple refs
Report the figure in µM without appending any unit label.

As a guide, the following entries are already answered.
> print(dat)
                                   molecule  unitinfo  assayvalue
1  CC(=O)N[C@@H](Cc1ccc(C2CC(=O)NS2(=O)=O)cc1)C(N)=O (stereo partly drawn)        µM         100
2  O=[N+]([O-])c1ccc(/C=C/c2cccc(O)c2O)c([N+](=O)[O-])c1        µM         168
3  CC1(C)CC[C@]2(C(=O)O)CC[C@]3(C)C(=CC[C@@H]4[C@@]5(C)Cc6nccnc6C(C)(C)[C@@H]5CC[C@]43C)[C@@H]2C1        µM        1.79

Form: Entry = O=C(O)[C@@H](Cc1ccccc1)N1C(=O)/C(=C/c2cn(-c3ccccc3)nc2-c2ccccc2Cl)SC1=S | System = Tyrosine-protein phosphatase non-receptor type 1 (Homo sapiens, UniProt P18031) | IC50 = ____ 4.89

Give Tyrosine-protein phosphatase non-receptor type 1 (Homo sapiens, UniProt P18031) IC50 for O=C1NC(=O)/C(=C/c2ccc(OCc3ccc(NC(=O)c4cccc(C(F)(F)F)c4)cc3)cc2OCc2ccc(C(F)(F)F)cc2)S1 6

Which measured IC50 belongs to O=C(O)COc1ccc(CN(Cc2ccc(-c3csnn3)cc2)S(=O)(=O)c2ccccc2)cc1Cl , tested on Tyrosine-protein phosphatase non-receptor type 1 (Homo sapiens, UniProt P18031)? 53.8

Give the reported IC50 for CCCCCCCCCCCCCCCCCC(=O)C1=C(O)OC(C)(C)OC1=O (system: Tyrosine-protein phosphatase non-receptor type 1 (Homo sapiens, UniProt P18031)). 0.6

Give recorded IC50 with Tyrosine-protein phosphatase non-receptor type 1 (Homo sapiens, UniProt P18031) for the following molecule: CC1(C)CC[C@]2(C(=O)O)CC[C@]3(C)C(=CC[C@@H]4[C@@]5(C)CC[C@H](OC(=O)C(=O)O)C(C)(C)[C@@H]5CC[C@]43C)[C@@H]2C1 2.86
